In this section we review reported IC50 values for a set of compounds.
target: Platelet-derived growth factor receptor alpha (Homo sapiens); test: Inhibition of PDGFR alpha phosphorylation in G292 cell
Sequence (P16234 whole entry): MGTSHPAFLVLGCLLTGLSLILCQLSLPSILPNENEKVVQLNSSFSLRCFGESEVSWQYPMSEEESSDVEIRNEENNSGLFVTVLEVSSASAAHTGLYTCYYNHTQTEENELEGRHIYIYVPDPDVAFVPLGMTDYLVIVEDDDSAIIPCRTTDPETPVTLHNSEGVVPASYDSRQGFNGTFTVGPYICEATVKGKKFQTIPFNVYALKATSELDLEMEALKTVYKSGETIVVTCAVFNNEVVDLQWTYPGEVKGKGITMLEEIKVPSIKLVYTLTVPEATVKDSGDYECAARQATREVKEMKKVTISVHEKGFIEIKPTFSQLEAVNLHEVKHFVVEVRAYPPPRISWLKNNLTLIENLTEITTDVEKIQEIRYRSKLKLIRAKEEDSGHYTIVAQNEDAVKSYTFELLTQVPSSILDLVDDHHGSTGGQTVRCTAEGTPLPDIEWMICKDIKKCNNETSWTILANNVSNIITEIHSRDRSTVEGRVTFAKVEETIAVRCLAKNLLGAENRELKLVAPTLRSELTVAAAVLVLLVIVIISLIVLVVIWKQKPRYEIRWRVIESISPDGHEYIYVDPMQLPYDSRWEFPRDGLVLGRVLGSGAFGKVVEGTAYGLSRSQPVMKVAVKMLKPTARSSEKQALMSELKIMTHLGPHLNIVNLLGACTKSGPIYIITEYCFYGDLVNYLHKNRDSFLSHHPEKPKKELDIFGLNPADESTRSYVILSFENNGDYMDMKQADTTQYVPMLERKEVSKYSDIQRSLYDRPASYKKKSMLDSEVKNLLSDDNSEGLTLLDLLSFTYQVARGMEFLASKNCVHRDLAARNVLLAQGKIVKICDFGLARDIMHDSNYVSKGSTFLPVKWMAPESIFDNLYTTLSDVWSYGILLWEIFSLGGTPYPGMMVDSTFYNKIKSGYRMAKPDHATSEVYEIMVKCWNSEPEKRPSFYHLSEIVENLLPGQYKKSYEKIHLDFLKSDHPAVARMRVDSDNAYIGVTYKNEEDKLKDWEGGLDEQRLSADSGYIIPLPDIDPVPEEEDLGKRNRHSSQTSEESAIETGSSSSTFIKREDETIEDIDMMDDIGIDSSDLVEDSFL
Parameter Measured: IC50

{"Molecule Smiles": "COc1cc2nccc(Oc3ccc(NC(=O)OCCC4CCCCC4)cc3)c2cc1OC", "Measurement Target": "Platelet-derived growth factor receptor alpha (Homo sapiens)", "Test Result": "18 nM"}
{"Molecule Smiles": "COc1cc2nccc(Oc3ccc(NC(=S)NC(=O)c4ccccc4)cc3)c2cc1OC", "Measurement Target": "Platelet-derived growth factor receptor alpha (Homo sapiens)", "Test Result": "8 nM"}
{"Molecule Smiles": "COc1cc2nccc(Oc3ccc(NC(=S)NC4CCCCC4)cc3)c2cc1OC", "Measurement Target": "Platelet-derived growth factor receptor alpha (Homo sapiens)", "Test Result": "40 nM"}
{"Molecule Smiles": "COc1cc2nccc(Oc3ccc(NC(=O)Oc4ccccc4)cc3)c2cc1OC", "Measurement Target": "Platelet-derived growth factor receptor alpha (Homo sapiens)", "Test Result": "5 nM"}
{"Molecule Smiles": "COc1cc2nccc(Oc3ccc(NC(=S)NC(=O)C4CCCCC4)cc3)c2cc1OC", "Measurement Target": "Platelet-derived growth factor receptor alpha (Homo sapiens)", "Test Result": "15 nM"}
{"Molecule Smiles": "COc1cc2ncnc(Oc3ccc(NC(=O)NC4CCCCC4)cc3)c2cc1OC", "Measurement Target": "Platelet-derived growth factor receptor alpha (Homo sapiens)", "Test Result": "7 nM"}
{"Molecule Smiles": "COc1cc2ncnc(Oc3ccc(NC(=O)NCCC4CCCCC4)cc3)c2cc1OC", "Measurement Target": "Platelet-derived growth factor receptor alpha (Homo sapiens)", "Test Result": "9 nM"}
{"Molecule Smiles": "COc1cc2nccc(Oc3ccc(NC(=O)NC4CCCCC4)cc3)c2cc1OC", "Measurement Target": "Platelet-derived growth factor receptor alpha (Homo sapiens)", "Test Result": "12 nM"}
{"Molecule Smiles": "COc1cc2ncnc(Oc3ccc(NC(=S)NCc4ccccc4)cc3)c2cc1OC", "Measurement Target": "Platelet-derived growth factor receptor alpha (Homo sapiens)", "Test Result": "46 nM"}
{"Molecule Smiles": "COc1cc2ncnc(Oc3ccc(NC(=S)NCC4CCCCC4)cc3)c2cc1OC", "Measurement Target": "Platelet-derived growth factor receptor alpha (Homo sapiens)", "Test Result": "37 nM"}
{"Molecule Smiles": "COc1cc2nccc(Oc3ccc(NC(=S)NC(=O)c4ccccc4Cl)cc3)c2cc1OC", "Measurement Target": "Platelet-derived growth factor receptor alpha (Homo sapiens)", "Test Result": "5 nM"}
{"Molecule Smiles": "COc1cc2nccc(Oc3ccc(NC(=O)NCCC4CCCCC4)cc3)c2cc1OC", "Measurement Target": "Platelet-derived growth factor receptor alpha (Homo sapiens)", "Test Result": "6 nM"}

* * *

# IC50 per record follows
molecular target: Mast/stem cell growth factor receptor Kit (Homo sapiens); assay: Inhibition of c-kit receptor phosphorylation in M07e cell
Sequence (P10721 whole entry): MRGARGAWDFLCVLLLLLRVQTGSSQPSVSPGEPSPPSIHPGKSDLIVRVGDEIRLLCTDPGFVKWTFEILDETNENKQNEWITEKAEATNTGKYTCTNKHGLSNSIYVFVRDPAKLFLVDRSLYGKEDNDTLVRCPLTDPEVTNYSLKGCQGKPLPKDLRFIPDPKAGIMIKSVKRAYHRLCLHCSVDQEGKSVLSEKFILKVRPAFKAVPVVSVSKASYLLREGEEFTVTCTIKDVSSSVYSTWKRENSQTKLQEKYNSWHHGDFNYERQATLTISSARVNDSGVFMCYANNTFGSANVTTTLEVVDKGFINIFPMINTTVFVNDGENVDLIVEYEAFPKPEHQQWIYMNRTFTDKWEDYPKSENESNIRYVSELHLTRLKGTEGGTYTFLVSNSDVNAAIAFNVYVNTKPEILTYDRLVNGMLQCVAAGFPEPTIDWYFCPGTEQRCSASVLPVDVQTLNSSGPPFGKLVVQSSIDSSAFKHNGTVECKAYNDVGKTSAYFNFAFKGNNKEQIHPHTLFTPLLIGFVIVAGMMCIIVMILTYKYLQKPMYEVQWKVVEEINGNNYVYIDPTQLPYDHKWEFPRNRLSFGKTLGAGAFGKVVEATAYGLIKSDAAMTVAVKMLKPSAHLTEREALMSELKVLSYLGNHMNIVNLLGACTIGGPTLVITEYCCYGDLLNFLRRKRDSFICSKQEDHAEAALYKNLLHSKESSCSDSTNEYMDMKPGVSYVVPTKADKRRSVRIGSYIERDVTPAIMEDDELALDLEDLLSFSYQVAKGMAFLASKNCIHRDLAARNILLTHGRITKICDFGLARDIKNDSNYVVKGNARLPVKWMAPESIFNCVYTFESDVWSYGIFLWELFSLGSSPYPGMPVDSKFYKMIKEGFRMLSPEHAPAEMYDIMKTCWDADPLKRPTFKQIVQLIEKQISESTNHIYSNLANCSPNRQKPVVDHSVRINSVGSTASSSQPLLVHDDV

{"Molecule Smiles": "COc1cc2ncnc(Oc3ccc(NC(=O)NC4CCCCC4)cc3)c2cc1OC", "IC50": "0.027 µM"}
{"Molecule Smiles": "COc1cc2nccc(Oc3ccc(NC(=O)NCCC4CCCCC4)cc3)c2cc1OC", "IC50": "< 0.03 µM"}
{"Molecule Smiles": "COc1cc2ncnc(Oc3ccc(NC(=S)NCC4CCCCC4)cc3)c2cc1OC", "IC50": "0.153 µM"}
{"Molecule Smiles": "COc1cc2ncnc(Oc3ccc(NC(=O)NCCC4CCCCC4)cc3)c2cc1OC", "IC50": "< 0.03 µM"}
{"Molecule Smiles": "COc1cc2nccc(Oc3ccc(NC(=S)NC4CCCCC4)cc3)c2cc1OC", "IC50": "0.069 µM"}
{"Molecule Smiles": "COc1cc2nccc(Oc3ccc(NC(=O)OCCC4CCCCC4)cc3)c2cc1OC", "IC50": "0.08 µM"}
{"Molecule Smiles": "COc1cc2ncnc(Oc3ccc(NC(=S)NCc4ccccc4)cc3)c2cc1OC", "IC50": "0.303 µM"}
{"Molecule Smiles": "COc1cc2nccc(Oc3ccc(NC(=O)NC4CCCCC4)cc3)c2cc1OC", "IC50": "0.022 µM"}

Cited source for all entries: ChEMBL document CHEMBL1146076
